Target: human TRPV1 (Homo sapiens (Human), UniProt Q8NER1)
Sequence (Q8NER1 whole entry): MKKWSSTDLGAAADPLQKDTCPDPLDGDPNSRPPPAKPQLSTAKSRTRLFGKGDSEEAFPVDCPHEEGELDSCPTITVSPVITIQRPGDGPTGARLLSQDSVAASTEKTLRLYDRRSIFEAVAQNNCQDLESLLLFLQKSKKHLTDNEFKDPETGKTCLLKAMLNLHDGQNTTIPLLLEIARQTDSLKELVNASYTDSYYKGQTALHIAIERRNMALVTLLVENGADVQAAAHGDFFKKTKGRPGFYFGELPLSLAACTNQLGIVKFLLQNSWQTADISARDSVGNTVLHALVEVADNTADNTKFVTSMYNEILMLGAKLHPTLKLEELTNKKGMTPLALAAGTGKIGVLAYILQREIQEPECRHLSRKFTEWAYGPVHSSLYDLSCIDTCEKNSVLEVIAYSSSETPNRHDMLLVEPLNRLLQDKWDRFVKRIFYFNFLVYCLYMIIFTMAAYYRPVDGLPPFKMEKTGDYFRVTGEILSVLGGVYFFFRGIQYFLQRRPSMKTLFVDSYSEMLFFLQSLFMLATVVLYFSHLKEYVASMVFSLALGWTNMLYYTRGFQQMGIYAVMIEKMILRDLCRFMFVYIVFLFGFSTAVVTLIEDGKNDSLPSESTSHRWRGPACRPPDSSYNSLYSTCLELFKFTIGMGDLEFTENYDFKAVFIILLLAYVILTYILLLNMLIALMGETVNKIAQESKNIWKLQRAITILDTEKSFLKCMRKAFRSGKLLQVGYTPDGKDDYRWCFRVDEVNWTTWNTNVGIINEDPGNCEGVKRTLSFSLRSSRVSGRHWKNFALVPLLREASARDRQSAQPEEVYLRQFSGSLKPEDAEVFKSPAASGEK
Conditions: read-out: IC50 (μM), antagonist effect against human TRPV1; CHO cells expressing human TrpV1; stimulated with 2.5 μM NADA (EC80); mean of at least three independent experiments
Structures can show the parent of a compound that is named as a salt.
Kindly state IC50 for each of the entries shown.
API: value field is a number in µM; no unit string.

Q. Could you share which IC50 value was measured for Fc1ccc(O[C@H]2C[C@H](NCc3cccc4cnccc34)C2)cc1Cl [Example 28, HCl] ?
A. 0.28

Q. Could you share which IC50 value was measured for N#Cc1ccc(O[C@H]2C[C@H](NCc3c(F)ccc4cnccc34)C2)c(F)n1 [Example 75, HCl] ?
A. 0.269

Q. Could you share which IC50 value was measured for FCc1cc(O[C@H]2C[C@H](NCc3c(F)ccc4cnccc34)C2)ccc1F [Example 41, HCl] ?
A. 0.09

Q. Could you share which IC50 value was measured for Nc1cc2c(CN[C@H]3C[C@H](Oc4ccc(C(F)(F)F)nc4)C3)c(F)ccc2cn1 [Example 17, HCl] ?
A. 0.13

Q. Could you share which IC50 value was measured for Fc1ccc2cnccc2c1CN[C@H]1C[C@H](Oc2ccc(C3CC3(F)F)cc2)C1 (some centres unmarked) [Example 42] ?
A. 0.173

Q. Could you share which IC50 value was measured for FCC(F)c1cc(O[C@H]2C[C@H](NCc3c(F)ccc4cnccc34)C2)ccc1F (some centres unmarked) [Example 40] ?
A. 0.124

Q. Could you share which IC50 value was measured for Fc1ccc2cnccc2c1CN[C@H]1C[C@H](Oc2ccc(C(F)(F)F)nc2)C1 [Example 94, HCl] ?
A. 0.193

Q. Could you share which IC50 value was measured for OCC(O)c1cc(F)c(CN[C@H]2C[C@H](Oc3ccc(F)c(C(F)(F)F)c3)C2)c2ccncc12 (mixture of isomers) [Example 7 racemic] ?
A. 0.0104

Q. Could you share which IC50 value was measured for Nc1cc2c(CC(=O)N[C@H]3C[C@H](Oc4ccc(F)c(C(F)(F)F)c4)C3)c(F)ccc2cn1 [Example 69] ?
A. 0.00015

Q. Could you share which IC50 value was measured for Nc1cc(F)c(CN[C@H]2C[C@H](Oc3ccc(F)c(C(F)(F)F)c3)C2)c2ccncc12 [Example 12] ?
A. 0.0578

Q. Could you share which IC50 value was measured for Cc1ccc2cnccc2c1CN[C@H]1C[C@H](Oc2ccc(C(F)(F)F)nc2)C1 [Example 2, HCl] ?
A. 0.711

Q. Could you share which IC50 value was measured for Cc1c(F)cc(O[C@H]2C[C@H](NCc3c(F)ccc4cnccc34)C2)cc1F [Example 52] ?
A. 0.0271

Q. Could you share which IC50 value was measured for Fc1ccc2cnccc2c1CN[C@H]1C[C@H](Oc2cccc(C3CC3)c2)C1 [Example 88, HCl] ?
A. 0.0952

Q. Could you share which IC50 value was measured for Cc1cc(C)cc(O[C@H]2C[C@H](NCc3c(F)ccc4cnccc34)C2)c1 [Example 84, HCl] ?
A. 0.722

Q. Could you share which IC50 value was measured for Fc1ccc(O[C@H]2C[C@H](NCc3c(F)ccc4cnccc34)C2)cc1C(F)(F)F [Example 3, HCl] ?
A. 0.00344

Q. Could you share which IC50 value was measured for Fc1cccc(O[C@H]2C[C@H](NCc3c(F)ccc4cnccc34)C2)c1F [Example 35] ?
A. 0.128

Q. Could you share which IC50 value was measured for Cc1c(F)cc(O[C@H]2C[C@H](NCc3c(F)cc(CO)c4cnccc34)C2)cc1F [Example 53] ?
A. 0.0769

----------
Biological target: human TRPV1 (Homo sapiens (Human))
Conditions: read-out: IC50 (μM), antagonist effect against human TRPV1; CHO cells expressing human TrpV1; stimulated with 2.5 μM NADA (EC80); mean of at least three independent experiments
Where a name gives a salt, the structure may show the parent alone.
Recorded IC50 determines the label; the label ranges are bucket A: < 0.06 µM; bucket B: ≥ 0.06 µM and < 1 µM; bucket C: ≥ 1 µM

Q. Class (by measured IC50) for C[C@]1(NCc2c(F)ccc3cnccc23)C[C@H](Oc2ccc(F)c(C(F)(F)F)c2)C1 [Example 68 trans]
A. bucket A

Q. Class (by measured IC50) for Fc1ccc2cnccc2c1CN[C@H]1C[C@H](Oc2ccc(OC(F)(F)F)cc2)C1 [Example 36, HCl]
A. bucket B

Q. Class (by measured IC50) for Nc1cc2c(CN[C@H]3C[C@H](Oc4ccc(F)c(C(F)(F)F)c4)C3)c(F)cc([C@@H](O)CO)c2cn1 (single isomer, unassigned; peak 1) [Example 21 peak 1]
A. bucket A

Q. Class (by measured IC50) for OCc1cc(F)c(CN[C@H]2C[C@H](Oc3ccnc(C(F)(F)F)c3)C2)c2ccncc12
A. bucket B

Q. Class (by measured IC50) for Fc1ccc2cnccc2c1CN[C@H]1C[C@H](Oc2nc(C(F)(F)F)cs2)C1
A. bucket C

Q. Class (by measured IC50) for COc1ncc(O[C@H]2C[C@H](NCc3c(F)ccc4cnccc34)C2)cc1C(F)(F)F [Example 92, HCl]
A. bucket B

Q. Class (by measured IC50) for NS(=O)(=O)NCC(O)c1cc(F)c(CN[C@H]2C[C@H](Oc3ccc(F)c(C(F)(F)F)c3)C2)c2ccncc12 (stereo partly drawn)
A. bucket A

Q. Class (by measured IC50) for Nc1nccc2c(CN[C@H]3C[C@H](Oc4ccc(F)c(C(F)(F)F)c4)C3)cccc12
A. bucket C

Q. Class (by measured IC50) for Fc1ccc2cnccc2c1CN[C@H]1C[C@H](Oc2cccc(OC(F)(F)F)c2)C1 [Example 37, HCl]
A. bucket B

Q. Class (by measured IC50) for N#Cc1ncc(O[C@H]2C[C@H](NCc3c(F)ccc4cnccc34)C2)cn1
A. bucket C

----------
Biological target: human TRPV1 (Homo sapiens (Human))
Details: read-out: IC50 (μM), antagonist effect against human TRPV1; CHO cells expressing human TrpV1; stimulated with 2.5 μM NADA (EC80); mean of at least three independent experiments
Counter-ions that a name gives are not always drawn.
Recorded IC50 determines the label; the label ranges are low (below 20 nM), medium (20 nM to below 200 nM), high (200 nM or more)

Q. Class (by measured IC50) for OCCC(O)c1cc(F)c(CNC2CC(Oc3ccc(F)c(C(F)(F)F)c3)C2)c2ccncc12 (racemic) [Example 9 racemic]
A. low

Q. Class (by measured IC50) for Fc1ccc2cnccc2c1CN[C@H]1C[C@H](Oc2ccc3c(c2)OC(F)(F)O3)C1 [Example 46, HCl]
A. medium

Q. Class (by measured IC50) for Nc1cc2c(CN[C@H]3C[C@H](Oc4ccnc(C(F)(F)F)c4)C3)c(F)cc(CO)c2cn1 [Example 20, HCl]
A. medium

Q. Class (by measured IC50) for CC(O)c1cc(F)c(CN[C@H]2C[C@H](Oc3ccc(F)c(C(F)(F)F)c3)C2)c2ccncc12 (some centres unmarked) [Example 8, HCl]
A. medium

Q. Class (by measured IC50) for Nc1cc2c(CN[C@H]3C[C@H](Oc4ccc(F)cc4F)C3)c(F)cc(CO)c2cn1 [Example 19, HCl]
A. low

Q. Class (by measured IC50) for Fc1ccc2ccc(O[C@H]3C[C@H](NCc4c(F)ccc5cnccc45)C3)cc2c1 [Example 32, HCl]
A. medium

Q. Class (by measured IC50) for COc1c(F)cc(O[C@H]2C[C@H](NCc3c(F)ccc4cnccc34)C2)cc1F
A. low

Q. Class (by measured IC50) for Oc1ccc(CN[C@H]2C[C@H](Oc3ccc(F)c(C(F)(F)F)c3)C2)c2ccncc12 [Example 23, HCl]
A. high

Q. Class (by measured IC50) for Cc1ccc2cnccc2c1CN[C@H]1C[C@H](Oc2ccc(F)c(C(F)(F)F)c2)C1 [Example 1, HCl]
A. medium

Q. Class (by measured IC50) for Fc1ccc(O[C@H]2C[C@H](NCc3c(F)ccc4cnccc34)C2)cc1OC(F)(F)F [Example 38, HCl]
A. medium

Q. Class (by measured IC50) for Fc1cc(CO[C@H]2C[C@H](NCc3c(F)ccc4cnccc34)C2)ccc1C(F)(F)F
A. medium

Q. Class (by measured IC50) for OCC[C@H](O)c1cc(F)c(CN[C@H]2C[C@H](Oc3ccc(F)c(C(F)(F)F)c3)C2)c2ccncc12 (single isomer, unassigned; peak 1) [Example 9 peak 1]
A. low

Q. Class (by measured IC50) for Nc1cc2c(CN[C@H]3C[C@H](Oc4ccc(F)cc4F)C3)c(F)ccc2cn1 [Example 15, HCl]
A. medium

Q. Class (by measured IC50) for Fc1cc(F)cc(O[C@H]2C[C@H](NCc3c(F)ccc4cnccc34)C2)c1 [Example 82, HCl]
A. medium

Q. Class (by measured IC50) for O=C(Cc1cccc2cnccc12)N[C@H]1C[C@H](Oc2ccc(F)c(C(F)(F)F)c2)C1
A. low

Q. Class (by measured IC50) for CN(C)c1ccc2cnccc2c1CN[C@H]1C[C@H](Oc2ccc(F)c(C(F)(F)F)c2)C1 [Example 81, HCl]
A. high

Q. Class (by measured IC50) for O=C(Cc1c(F)cc(CO)c2cnccc12)N[C@H]1C[C@H](Oc2ccc(F)c(C(F)(F)F)c2)C1
A. low

Q. Class (by measured IC50) for CC(C)c1cc(O[C@H]2C[C@H](NCc3cccc4cnccc34)C2)ccc1F [Example 43, HCl]
A. high

Q. Class (by measured IC50) for COc1c(F)cc(O[C@H]2C[C@H](NCc3c(F)cc(CO)c4cnccc34)C2)cc1F
A. medium

Q. Class (by measured IC50) for C[C@]1(NCc2c(F)ccc3cnccc23)C[C@@H](Oc2ccc(F)c(C(F)(F)F)c2)C1 [Example 68 cis]
A. high

Q. Class (by measured IC50) for Fc1ccc(O[C@H]2C[C@H](NCc3c(F)ccc4cnccc34)C2)c(F)n1
A. high

Q. Class (by measured IC50) for Fc1ccc(O[C@H]2C[C@H](NCc3c(F)ccc4cnccc34)C2)cc1F [Example 27, HCl]
A. medium

Q. Class (by measured IC50) for Fc1cc(O[C@H]2C[C@H](NCc3c(F)ccc4cnccc34)C2)cnc1F
A. high
